Test system: MS2 coat protein
Assay: apparent KD of MS2 coat protein; designed switch direction (-1 OFF switch, 1 ON switch): -1; higher = weaker reporter binding
Conditions: input ligand: FMN 200 uM
Tick true (1) if apparent KD of MS2 coat protein is 100 nM or greater. Tick false (0) if apparent KD of MS2 coat protein is less than 100 nM.

Some entries whose results are on file:
{"columns": ["sequence.input", "answer.label"],
 "data": [
  ["UUGUUAUAUGUAGGAUAUGCGUGUUAUUAUUAGGCAGAAGGACAUGAGGAUCACCCAUGUAUGUUGUUGUUAUAUAUUAUAUAU [Title] (Eterna round: R96, puzzle: Exclusion NG 1)", "false (0)"],
  ["ACCGUGUAAGGAUAUCGAGGCCGAGGAAGUCGCAUGGCCUGUGAGAAGGUACAUGAGGAUCACCCAUGUCCCAU [Eternabot (L2) Solution 6] (Eterna round: R97, puzzle: Exclusion 4)", "false (0)"],
  ["CCUUACCGAGGAUAUACAUGAGGAUCACCCAUGUGAUCCUAAGGCUGAUCAAGCCUAUGUAGAAGGCGCAAAUC [salish99_ex3_r4_004] (Eterna round: R97, puzzle: Exclusion 3)", "true (1)"],
  ["AGUUCAAGGAAUUCUUCUGACAUGAGGAUCACCCAUGUGCUUUGCAAGUGUUGCUCGUCGCCUAGAACGUUAAGUAA [Eternabot (Original) Solution 32] (Eterna round: R97, puzzle: Sensor, turn-off variant 1)", "true (1)"],
  ["ACGUGCACUCAGGAUAUGCUACGCCUGCUCUCAGCAGAAGGGAGUACAUGAGGAUCACCCAUGUGACAUCUGAU [Eternabot (Original) Solution 13] (Eterna round: R97, puzzle: Exclusion 6)", "false (0)"],
  ["UGCGAAGAGUGAGGAUAUGUGCGACAAAGUUGCACAGAAGGCACAUGAGGAUCACCCAUGUGAGCUAGGUCGAAAGACCUAGCG [Omei Exc(NG)1 Av7] (Eterna round: R96, puzzle: Exclusion NG 1)", "false (0)"]
]}

Please indicate if the recorded apparent KD of MS2 coat protein for GCUUCGGCAGGAUAUACAUGAGGAUCACCCAUGUGCUUCGGCUUGAUCAAGUUGAAGUGUAGAAGGGUUGAAGU [-25.5, -22.5 kcal, 26% A, 3 bis, 3 bis] (Eterna round: R97, puzzle: Exclusion 3) meets or exceeds 100 nM.
false (0)

Please indicate if the recorded apparent KD of MS2 coat protein for ACGUUCAUUGAACAUGAGGAUCACCCAUGUGGCCUCCGGGUGGAGGAUAUGCACCAGGCCGAGGUGUAGAAGGCCAUAUACCGA [Riraed] (Eterna round: R96, puzzle: Exclusion NG 3) meets or exceeds 100 nM.
true (1)

Please indicate if the recorded apparent KD of MS2 coat protein for ACAUGUCAUUGAGGAUAUCGCACACAUGAGGAUCACCCAUGUAAACGGAUGCUCUUUCGUGGGUUCGAGAAGGCGAUGUACAUU [Ex NG2 #96] (Eterna round: R96, puzzle: Exclusion NG 2) meets or exceeds 100 nM.
true (1)
